Measured Trimeric HA Binding: RLU accompanies every entry in the list below.
- Target System: recombinant homotrimeric HA A/Indonesia/5/05 H5N1 (Influenza A virus A/Indonesia/5/2005(H5N1))
- Run Description: protein microarray, purified IgG, trimeric HA
- Test Parameters: remark: other sources report otherwise
Quantity Kind: Trimeric HA Binding: RLU (RLU)

| Binder | Experimental Result |
| --- | --- |
| TCN-523 (5248_A17) (antibody, V domains shown) VH: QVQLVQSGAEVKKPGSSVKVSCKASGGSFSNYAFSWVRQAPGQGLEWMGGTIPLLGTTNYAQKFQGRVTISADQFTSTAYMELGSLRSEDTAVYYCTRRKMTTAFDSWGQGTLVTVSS VL: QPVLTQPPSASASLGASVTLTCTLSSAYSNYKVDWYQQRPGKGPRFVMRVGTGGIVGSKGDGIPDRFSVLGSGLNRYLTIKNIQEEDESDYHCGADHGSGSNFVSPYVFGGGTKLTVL | 16900 |
| TCN-551 (5243_D01) (antibody, V domains shown) VH: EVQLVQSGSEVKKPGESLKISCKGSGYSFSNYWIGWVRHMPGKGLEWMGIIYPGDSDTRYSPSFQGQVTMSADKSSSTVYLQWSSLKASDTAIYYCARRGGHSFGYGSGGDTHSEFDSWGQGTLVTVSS VL: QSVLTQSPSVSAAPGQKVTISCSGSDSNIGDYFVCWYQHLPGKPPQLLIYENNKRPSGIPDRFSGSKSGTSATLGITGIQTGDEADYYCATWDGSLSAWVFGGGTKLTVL | 296 |
| TCN-528 (5087_P17) (antibody, V domains shown) VH: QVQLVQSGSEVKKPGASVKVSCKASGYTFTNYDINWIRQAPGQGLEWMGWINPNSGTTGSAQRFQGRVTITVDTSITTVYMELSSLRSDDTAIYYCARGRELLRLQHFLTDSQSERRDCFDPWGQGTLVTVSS VL: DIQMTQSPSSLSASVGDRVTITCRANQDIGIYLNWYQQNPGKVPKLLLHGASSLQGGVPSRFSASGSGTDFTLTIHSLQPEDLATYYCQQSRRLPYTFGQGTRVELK | 27000 |
